In this section, each of the compounds is paired with its reported inhibition at 1 µM.
target: ABHD6 (Mus musculus, UniProt Q8R2Y0); construct: Proteomes (mouse brain membrane fraction or cell lysates); from tissue; host or cells: mouse brain membrane fraction or cell lysates; assay: In vitro competitive activity-based protein profiling (mouse), ABHD6; type: biochemical; conditions: 1 μM inhibitor, mouse brain membrane fraction or cell lysates; read-out: ABHD6 % inh. 1 μM (mouse)
Sequence (Q8R2Y0 whole entry): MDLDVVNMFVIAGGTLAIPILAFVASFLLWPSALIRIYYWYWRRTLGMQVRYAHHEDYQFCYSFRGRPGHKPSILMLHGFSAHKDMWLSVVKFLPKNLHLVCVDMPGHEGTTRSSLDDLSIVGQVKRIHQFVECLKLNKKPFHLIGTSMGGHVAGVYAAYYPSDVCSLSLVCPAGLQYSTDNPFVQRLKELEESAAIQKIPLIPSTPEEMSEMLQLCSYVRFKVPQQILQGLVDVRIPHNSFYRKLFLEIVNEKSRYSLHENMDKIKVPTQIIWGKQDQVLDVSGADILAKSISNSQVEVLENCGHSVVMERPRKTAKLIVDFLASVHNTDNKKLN

Some compounds with recorded inhibition at 1 µM:
Observed inhibition at 1 µM, ABHD6 (Mus musculus, UniProt Q8R2Y0), O=C(O)[C@@H]1CCCN1C1CCN(c2cc(C(F)(F)F)ccc2CN2CCN(C(=O)OC(C(F)(F)F)C(F)(F)F)CC2)CC1 : 50 to 75%

Observed inhibition at 1 µM, ABHD6 (Mus musculus, UniProt Q8R2Y0), N#Cc1ccc(CN2CCN(C(=O)OC(C(F)(F)F)C(F)(F)F)CC2)c(N2CCC(C(=O)O)CC2)c1 : 0 to 25%

Next:
Observed inhibition at 1 µM, ABHD6 (Mus musculus, UniProt Q8R2Y0), CCC(C(=O)O)n1cc(-c2cc(C(F)(F)F)ccc2CN2CCN(C(=O)OC(C(F)(F)F)C(F)(F)F)CC2)cn1 (centres unmarked) : ≥ 75%

Observed inhibition at 1 µM, ABHD6 (Mus musculus, UniProt Q8R2Y0), O=C(O)CNCC1CCN(c2cc(C(F)(F)F)ccc2CN2CCN(C(=O)OC(C(F)(F)F)C(F)(F)F)CC2)CC1 : 0 to 25%
